Molecular target: Transient receptor potential cation channel subfamily V member 3 (Homo sapiens)
Assay: Antagonist activity at human TRPV3 expressed in recombinant HEK293 cells assessed as inhibition of 2-APB induced calcium flux by FLIPR analysis
Assay type: cell-based
Classify on Kb using 1: < 400 nM; 2: ≥ 400 nM and < 2000 nM; 3: ≥ 2000 nM

{"columns": ["compound", "answer-label"],
 "data": [
  ["OC(c1cc(F)ccn1)C1(c2ccc(Cl)c(Cl)c2)CCC1 (racemic)", 2],
  ["C[C@]1(O)C[C@@](c2ccnc(C(F)(F)F)c2)([C@H](O)c2ccccn2)C1", 3],
  ["O[C@H](c1ccccn1)[C@]1(c2ccc(Cl)c(Cl)c2)CCO1", 1],
  ["C[C@]1(c2ccc(OC(F)(F)F)cc2)C[C@](O)(c2ccccn2)CO1 (single isomer, unassigned)", 2],
  ["O[C@@]1(c2ccccn2)CC[C@@H](c2ccc(C(F)(F)F)cc2)C1", 1],
  ["C[C@]1(O)C[C@@](c2cccc(OC(F)(F)F)c2)([C@H](O)c2ccccn2)C1", 1],
  ["O[C@H](c1ccccn1)[C@]1(c2ccc(C(F)(F)F)cc2)C[C@@H](O)C1", 2],
  ["C[C@]1(O)C[C@](c2cccc(C(F)(F)F)c2)([C@H](O)c2ccccn2)C1", 2],
  ["CC(O)(c1ccccn1)C1(c2ccc(Cl)c(Cl)c2)CCC1 (racemic)", 3],
  ["C[C@]1(O)C[C@](c2cccc(OC(F)(F)F)c2)([C@H](O)c2ccccn2)C1", 2],
  ["C[C@]1(O)C[C@@](c2ccc(OC(F)(F)F)cc2)([C@H](O)c2ccccn2)C1", 1],
  ["O[C@]1(c2ccccn2)CC[C@H](c2ccc(C(F)(F)F)cc2)C1", 2],
  ["O[C@H](c1ccccn1)[C@@]1(c2ccc(Cl)c(Cl)c2)CCO1", 1],
  ["C[C@]1(O)C[C@](c2ccc(C(F)(F)F)cc2)([C@H](O)c2ccccn2)C1", 3],
  ["C[C@]1(O)C[C@](c2cc(C(F)(F)F)ccn2)([C@@H](O)c2ccccn2)C1", 3]
]}
